All figures here come from paper PMC5540273.

System: MEK1;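 also: KINOMEscan kinase panel screen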
Construct: gene MAP2K1
run.conditions: concentration: 1 μM, replicates: in singlicate; n = 1
The compounds listed here are annotated with their %Inh.
measured.parameter: %Inh (%)

compound="CNc1nccc(-c2c(-c3ccc(F)cc3)ncn2CCCN2CCOCC2)n1 [SB-222516]" system_under_test=MEK1 measured_parameter=%Inh test_result=0
compound="Nc1n[nH]c2nnc(-c3ccccc3)cc12 [SB-517389]" system_under_test=MEK1 measured_parameter=%Inh test_result=0
compound="Clc1ccc(-c2cc(-c3c[nH]nc3-c3ccccn3)ccn2)cc1 [GW681251]" system_under_test=MEK1 measured_parameter=%Inh test_result=39
compound="Cc1cccc(-c2nc(Nc3ccc4[nH]nnc4c3)c3ccccc3n2)n1 [GW867587]" system_under_test=MEK1 measured_parameter=%Inh test_result=7
compound="C[C@H]1CC[C@@H](C(=O)Nc2ccccc2)CN1c1cc(-c2ccc3c(N)n[nH]c3c2)nc(N)n1 [GSK2283293]" system_under_test=MEK1 measured_parameter=%Inh test_result=0
compound="CCC(CC)(CC)n1cnc2c(N)ncnc21 [SKF-97620]" system_under_test=MEK1 measured_parameter=%Inh test_result=10
compound="Cc1ccc(NC(=O)c2cccc(C#N)c2)cc1-c1ccc(C(=O)Nc2ccncc2)cc1 [GSK1398463]" system_under_test=MEK1 measured_parameter=%Inh test_result=0
compound="CC(C)(C)OC(=O)NC1CCCN(c2cc(-c3ccc4c(N)n[nH]c4c3)nc(N)n2)C1 (stereo not drawn) [GSK2286096]" system_under_test=MEK1 measured_parameter=%Inh test_result=100
compound="COc1ccc(-c2oc3ncnc(N)c3c2-c2ccc(OC)cc2)cc1 [SB-589132]" system_under_test=MEK1 measured_parameter=%Inh test_result=0
compound="Fc1cccc(COc2ccc(Nc3ncnc4sc(-c5ccc[nH]5)cc34)cc2Cl)c1 [GW707818]" system_under_test=MEK1 measured_parameter=%Inh test_result=0
compound="Cl.Fc1ccccc1COc1ccc(Nc2ncnc3ccc(-c4nnc(C(F)(F)F)o4)cc23)cc1Cl [GW424170]" system_under_test=MEK1 measured_parameter=%Inh test_result=0
compound="O=c1cc(N2CCOCC2)nc2n(Cc3cccc(Cl)c3)ccn12 [GSK2296823]" system_under_test=MEK1 measured_parameter=%Inh test_result=8
compound="COc1ccc(Nc2nccc(N3CCC(NC(=O)c4cccc(NC(C)=O)c4)C3)n2)cc1 (stereo not drawn) [GSK1379732]" system_under_test=MEK1 measured_parameter=%Inh test_result=0
compound=N#Cc1ccc(Oc2ccc(Nc3ncnc4cc[nH]c34)cc2Cl)cc1 system_under_test=MEK1 measured_parameter=%Inh test_result=22
compound="O=C(c1ccc(-c2cc(-c3c[nH]nc3-c3ccccn3)ccn2)cc1)N1CCCC1 [GW792479]" system_under_test=MEK1 measured_parameter=%Inh test_result=14
compound="CCCc1ccc(S(=O)(=O)NC2CCN(c3ccnc(Nc4ccc(OC)cc4)n3)C2)cc1 (stereo not drawn) [GSK1379737]" system_under_test=MEK1 measured_parameter=%Inh test_result=0
compound="Nc1nccc2scc(-c3ccc4c(c3)CCN4C(=O)Cc3cc(F)ccc3F)c12 [GSK2587663]" system_under_test=MEK1 measured_parameter=%Inh test_result=0
compound="FC(F)(F)c1cc(Nc2nccc(-c3c(-c4ccc(Cl)cc4)nn4ncccc34)n2)ccc1Cl [GW829351]" system_under_test=MEK1 measured_parameter=%Inh test_result=6
